Each record here notes measured normalized growth.
Test: chemical genetic growth profiling, strain panel (AID 1159580);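 further: tested at 20 µM; growth read once vehicle control cultures reached saturation at 30 °C; 1 = growth at the plate median or of vehicle wells; lower values mean less growth of the strain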
Details: S. cerevisiae deletion strains, growth OD, locus YDR334W, strain swr1, stronger effect = lower value
In all, about 5,500 compounds went through this assay and about 2,000 (36%) were called active. Not shown: some 18% with an inconclusive outcome. The list shows a part of the results.

Molecule	normalized growth
CC1(C)C(O)CC(O)C2(C)C1CC(O)C1(C)C2CCC2(C)C(c3ccoc3)OC(=O)C3OC321 (stereo unspecified)	0.985
CC1CCC2(OC1)OC1CC3C4CCC5C[C@@H](O)CCC5(C)C4=CCC3(C)C1[C@@H]2C (stereo partly specified)	1.01
O=c1[nH]cnc2[nH]ncc12	1.03
COc1cc([C@H]2Oc3cc([C@H]4Oc5cc(O)cc(O)c5C(=O)[C@@H]4O)ccc3O[C@@H]2CO)ccc1O	1.01
O=C(Nc1ccccc1)Nc1ccccc1	0.959
Cc1cc(O)c(C=O)c2c1C(=O)Oc1c(COC(=O)/C=C/C(=O)O)c(O)c(C(=O)O)c(C)c1O2	0.891
CC(=O)Nc1ccccc1	0.956
CCCC(CCC)C(=O)O	1.02
CCCCS(=N)(=O)CCC(N)C(=O)O (stereo unspecified)	0.987
C[C@@H]1CC2C3C[C@H](F)C4=CC(=O)C=C[C@]4(C)[C@@]3(F)[C@@H](O)C[C@]2(C)[C@@]1(O)C(=O)COC(=O)C(C)(C)C (stereo partly specified)	1
C/C=C/C(=O)N(CC)c1ccccc1C	0.997
Cc1cc(C)cc(OCC2CNC(=O)O2)c1 (stereo unspecified)	0.966
COc1cc([C@@H]2c3cc4c(cc3[C@H](OC(C)=O)[C@H]3COC(=O)[C@@H]23)OCO4)cc(OC)c1OC	0.969
CN(CCC(N)CC(=O)N[C@H]1C=CC(n2ccc(N)nc2=O)O[C@@H]1C(=O)O)C(=N)N (stereo partly specified)	0.917
CC1=C2[C@H]3OC(=O)[C@@H](C)[C@@H]3CC[C@@]2(C)C=CC1=O	0.96
O=C(O)c1ccccc1C(=O)Nc1ccc(S(=O)(=O)Nc2nccs2)cc1	0.966

----------
Each record here notes measured normalized growth.
Assay: chemical genetic growth profiling, strain panel (AID 1159580);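 further: tested at 20 µM; growth read once vehicle control cultures reached saturation at 30 °C; 1 = growth at the plate median or of vehicle wells; lower values mean less growth of the strain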
Conditions: S. cerevisiae deletion strains, growth OD, locus YBR229C, strain ROT2, stronger effect = lower value
Screen size: about 5,500 compounds; about 2,000 (36%) were called active. Roughly 18% stayed inconclusive and do not appear here. The list shows a part of the results.
Measured property: normalized growth

>>> df
                                    compound  reported_result
 0  CC(CCC(=O)O)[C@H]1CCC2C3CC[C@@H]4C[C@H](O)CC[C@]4(C)C3C[C@H](O)[C@@]21C (stereo partly specified)            0.987
 1  O=C(NCc1nc(-c2ccc(C(F)(F)F)cc2)no1)Nc1ccc(F)cc1F            0.987
 2  COc1cc(OC)c2c3c1C(=O)c1c(OC)cc(C)c4c(OC)cc(c-3c14)C(C)(C)C2=O             1.02
 3  Cc1c(S(=O)(=O)c2ccc(Cl)cc2)csc1S(=O)(=O)N/N=C\c1c(Cl)cccc1Cl             1.01
 4                              NNCCc1ccccc1            0.954
 5  OC1(c2ccc(Cl)cc2)CSc2nc3cc(C(F)(F)F)ccc3n21 (stereo unspecified)                1
 6         O=c1cc(-c2ccccc2)oc2cc(O)cc(O)c12            0.993
 7                    c1ccc2c(c1)CN1CCCC1=N2             1.01
 8  CC(CCC(=O)O)[C@H]1CCC2C3C(C[C@H](O)[C@@]21C)[C@@]1(C)CC[C@@H](O)C[C@H]1C[C@H]3O (stereo partly specified)             1.01
 9  COC(=O)CCC(C)[C@H]1CCC2C3C(C[C@H](O)[C@@]21C)[C@@]1(C)CC[C@@H](O)C[C@H]1C[C@H]3O (stereo partly specified)             1.03
10  CCCCC[C@H](CC(=O)NO)C(=O)N[C@H](C(=O)N1CCC[C@H]1CO)C(C)C                1
11  COC(=O)CCC(C)C1CCC2C3CC[C@@H]4C[C@H](O)CC[C@]4(C)C3C[C@H](O)[C@]12C (stereo partly specified)            0.998
12  O=C(O)CC(CC(=O)Nc1ccc(I)cc1F)c1ccc(C(F)(F)F)cc1 (stereo unspecified)             0.99
13  CC(CN(C)C)CN1c2ccccc2Sc2ccccc21 (stereo unspecified)            0.992
14        COc1ccc(C=C2C(=O)NC(=S)NC2=O)cc1Br             1.03
15  CN(C(=O)CN(CCO)CC(=O)N(C)C(C)(C)Cc1ccccc1)C(C)(C)Cc1ccccc1            0.993
16  O=c1cc(-c2cc(O)c(O)c(O)c2)oc2cc(O)cc(O)c12            0.988
17  CC(=O)Nc1ccc(S(=O)(=O)NC2Cc3ccccc3C2)cc1             1.01
18  CC(CCC(=O)O)[C@H]1CCC2C3CC[C@@H]4C[C@H](O)CC[C@]4(C)C3CC[C@@]21C (stereo partly specified)             1.04
19             Cc1cscc1S(=O)(=O)c1ccc(Cl)cc1            0.969
20               CCN(CCCc1ccccc1)CCCc1ccccc1                1
